This collection of values is drawn from paper PMC12072002.

# Test system: wild-type enzyme (β-glucosidase BGL0224)
# measurement-protocol: Effects of metal ions and additives on enzyme activity (p-NPG hydrolysis, IC50)
# Type: biochemical, Oenococcus oeni SD-2a
# test-context: metal ion at 5 mM, in words
parameter: effect on enzyme activity of the wild-type enzyme

{"columns": ["smiles-notation", "result"],
 "data": [
  ["[Ba+2]", "enhanced"],
  ["[Ca+2]", "inhibitory effects"],
  ["[Mg+2]", "inhibitory effects"],
  ["[Cu+2]", "inhibitory effects"],
  ["[K+]", "enhanced"],
  ["[Li+]", "enhanced"],
  ["[Zn+2]", "inhibitory effects"],
  ["[Ag+]", "inhibitory effects"],
  ["[Fe+2]", "inhibitory effects"]
]}

###

# measured-on: mutant III (β-glucosidase F133K)
# measurement-protocol: Effects of metal ions and additives on enzyme activity (p-NPG hydrolysis, IC50)
# test-context: metal ions and additives, Concentration 5 mM; optimum temperature and pH

{"columns": ["compound", "IC50, mM"],
 "data": [
  ["CCCCCCCCCCCCOS(=O)(=O)[O-].[Na+] [SDS]", 6.72],
  ["[Ag+] [Ag^+]", 3.03],
  ["[Na+] [Na^+]", 0.929],
  ["O=C(O)CN(CCN(CC(=O)O)CC(=O)O)CC(=O)O [EDTA]", 6.89],
  ["[Ca+2] [Ca^2+]", 3.38],
  ["[Fe+2] [Fe^2+]", 3.96],
  ["[Zn+2] [Zn^2+]", 3.19],
  ["O[C@@H](CS)[C@@H](O)CS [DTT]", 5.49],
  ["[Mg+2] [Mg^2+]", 3.37],
  ["[Cu+2] [Cu^2+]", 3.48]
]}

###

# System: mutant IV (β-glucosidase N181R)
# Assay type: biochemical, Oenococcus oeni SD-2a
# test-context: metal ion at 5 mM, in words

{"columns": ["smiles-notation", "effect on enzyme activity of mutant IV"],
 "data": [
  ["[Li+]", "enhanced"],
  ["[Fe+2]", "inhibitory effects"],
  ["[Mg+2]", "inhibitory effects"],
  ["[Ba+2]", "enhanced"],
  ["[Zn+2]", "inhibitory effects"],
  ["[Ca+2]", "inhibitory effects"],
  ["[Cu+2]", "inhibitory effects"],
  ["[Ag+]", "inhibitory effects"]
]}

###

# measured-on: wild-type enzyme (β-glucosidase BGL0224)
# measurement-protocol: Effects of metal ions and additives on enzyme activity (p-NPG hydrolysis, IC50)
# test-context: metal ions and additives, Concentration 5 mM; optimum temperature and pH

{"columns": ["smiles-notation", "IC50 [mM]"],
 "data": [
  ["[Fe+2]", 2.83],
  ["[Ag+]", 7.43],
  ["O[C@@H](CS)[C@@H](O)CS", 7.93],
  ["[Mn+2]", 3.76],
  ["[Cu+2]", 3.12],
  ["[Mg+2]", 8.92],
  ["[Zn+2]", 3.87],
  ["CCCCCCCCCCCCOS(=O)(=O)[O-].[Na+]", 7.89],
  ["O=C(O)CN(CCN(CC(=O)O)CC(=O)O)CC(=O)O", 6.41],
  ["[Ca+2]", 4.09]
]}

###

# Tested on: mutant III (β-glucosidase F133K)
# measurement-protocol: Effects of metal ions and additives on enzyme activity (p-NPG hydrolysis, IC50)
# Type: biochemical, Oenococcus oeni SD-2a
# test-context: metal ion at 5 mM, in words

{"columns": ["compound", "effect on enzyme activity of mutant III"],
 "data": [
  ["[Ca+2] [Ca^2+]", "inhibitory effects"],
  ["[Zn+2] [Zn^2+]", "inhibitory effects"],
  ["[K+] [K^+]", "enhanced"],
  ["[Fe+2] [Fe^2+]", "inhibitory effects"],
  ["[Cu+2] [Cu^2+]", "inhibitory effects"],
  ["[Li+] [Li^+]", "enhanced"],
  ["[Ag+] [Ag^+]", "inhibitory effects"],
  ["[Mg+2] [Mg^2+]", "inhibitory effects"],
  ["[Ba+2] [Ba^2+]", "enhanced"]
]}

###

# measured-on: mutant IV (β-glucosidase N181R)
# test-context: metal ions and additives, Concentration 5 mM; optimum temperature and pH
parameter: IC50 (mM)

{"columns": ["smiles-notation", "parameter", "measured-number"],
 "data": [
  ["O=C(O)CN(CCN(CC(=O)O)CC(=O)O)CC(=O)O", "IC50", 7.16],
  ["[Zn+2]", "IC50", 2.94],
  ["O[C@@H](CS)[C@@H](O)CS", "IC50", 6.17],
  ["[Ag+]", "IC50", 2.93],
  ["[Mg+2]", "IC50", 5.35],
  ["[Fe+2]", "IC50", 4.43],
  ["[Cu+2]", "IC50", 1.58],
  ["[Ca+2]", "IC50", 3.28],
  ["CCCCCCCCCCCCOS(=O)(=O)[O-].[Na+]", "IC50", 6.29],
  ["[K+]", "IC50", 2.42]
]}
